# tested system: T1, feline NGF (feline)
# T1 chain: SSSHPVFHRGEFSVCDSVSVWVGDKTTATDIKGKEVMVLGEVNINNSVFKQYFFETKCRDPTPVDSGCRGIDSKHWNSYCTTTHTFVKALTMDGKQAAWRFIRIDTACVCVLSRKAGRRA
# test description: SPR, Biacore 3000, feline NGF
# Method: Affinities of selected felinized anti-NGF antibody to feline NGF were measured using SPR (Surface Plasmon Resonance), Biacore 3000. Kinetics of association and dissociation of a felinized mAb with/from feline NGF were measured at different concentrations.
quantity: Kd (pM)
# output: bare number, implied unit pM

Which Kd value is on record for H1-23L3K36 (antibody, V domains shown, also called ZTS-082-1C) VH: DVQLVESGGDLVQPGGSLRLTCVASGFTLTQYGINWVRQAPGKGLQWVAVIWATGATDYNSALKSRFTISRDNAKNTLYLQMNSLKTEDTATYYCARDGWWYATSWYFDVWGQGALVTVSS VL: DIVMTQTPLSLPVTPGEPASISCKASQDINHYLNWYLQKPGQSPRLLIYYTSRLHSGVPSRFSGSGSGTDFTLRISSVEADDVGVYYCQQGDHFPRTFGQGT ?
916
